# Assay remarks: binders from COS7 lysate, DM2A8 probe, primary screen, torsin A project, cell lysate, small-molecule microarray, fluorescence 635/667 (AID 1065)
# Stated conditions: higher = more signal, COS7 lysate expressing mutant human TOR1A
Assign class by composite z-score: not lower than 0.2 means Condition met; lower than 0.2 means Condition not met.

Query string: Could you please find out whether CCOC(=CC(=O)OC)CC(O)c1cccc(Cl)c1 (stereo unspecified) has composite z-score that meets 0.2 or exceeds it?
Result string: Condition not met

Query string: Now give it for CC[C@@H]1[C@H]2C3C(=O)N(CC)C(=O)C3CC(=O)[C@H]2[C@H](c2ccc(C)cc2)N1S(=O)(=O)c1ccc(C)cc1 (stereo partly specified) too.
Result string: Condition not met

Query string: Now give it for CC(C)N1C(=O)[C@@]2(c3ccc([N+](=O)[O-])cc3)CC(=O)N(C3CCCCC3)[C@@H]2c2ccc(CO)cc21 too.
Result string: Condition not met

Query string: Now give it for CCOC(=O)C[C@H]1[C@H](OC(=O)c2ccc(-c3ccccc3)cc2)[C@@H](NC(=O)c2ccc3ccccc3n2)c2cc(OCCCO)ccc2N1C(=O)c1ccccc1 too.
Result string: Condition met

Query string: Now give it for O=C(CS)NCCCCCCNC(=O)[C@H]1C[C@H]2C(=O)N[C@@H](Cc3ccccc3)C(=O)N2[C@H]1c1cccc(OCCO)c1 too.
Result string: Condition met

Query string: Now give it for Cc1ccc(F)cc1S(=O)(=O)N[C@@H]1CCN(Cc2ccc(OC(C)C)cc2)C1 too.
Result string: Condition met

Query string: Now give it for O=C(O)[C@H](Cc1ccccc1)n1cc(-c2ccccn2)nn1 too.
Result string: Condition not met

Query string: Now give it for CC(CO)N1C(=O)[C@@H]2C3C(=O)OCCC/C=C\[C@H]3OC23C=CCN(Cn2nnc4ccccc42)C(=O)[C@@H]13 (stereo partly specified) too.
Result string: Condition not met

Query string: Now give it for O=C1OC[C@@H](c2ccccc2)N2CC(/C=C/c3ccccc3)=CC12 (stereo partly specified) too.
Result string: Condition not met

Query string: Now give it for CCOC(=O)C[C@H]1[C@H](OC(=O)c2ccccc2-c2ccccc2)[C@@H](NC(=O)CC(C)C)c2cc(OCCCO)ccc2N1C(=O)c1ccc2ccccc2n1 too.
Result string: Condition met

Query string: Now give it for COc1ccc([Si](C)(C)[C@@H]2[C@@H](CCn3cc([C@H](O)c4ccccc4)nn3)O[C@]3(C(=O)N(Cc4ccc(N5CCOC5=O)cc4)c4ccccc43)[C@H]2C)cc1 too.
Result string: Condition met

Query string: Now give it for NC(=O)N1C(=O)C2C(C1=O)C1C=C(c3ccc(CO)cc3)C2C(C2CC2)N1Cc1sc2ccccc2c1Cl (stereo unspecified) too.
Result string: Condition met

Query string: Now give it for C=CC[C@]12N=C(c3ccc(OCCCO)cc3)O[C@H]1c1ccccc1N(C)C2=O too.
Result string: Condition met

Query string: Now give it for COc1ccc(C(O)C2C=CC3C(=O)N(C)C(=O)C3N2N2CCCCC2)cc1 (stereo unspecified) too.
Result string: Condition met

Query string: Now give it for CCOC(=O)C1=C[C@@H](c2ccccc2)N(S(=O)(=O)c2ccc(C)cc2)[C@H]1c1cccc(Cl)c1 too.
Result string: Condition met

Query string: Now give it for C=C(COC)/C(=C/C[C@@H](OC(=O)c1ccncc1)c1ccc(OCCO)cc1)c1cnc2ccccc2c1 too.
Result string: Condition met

Query string: Now give it for CC(C)CN1C(=O)[C@@]2(Cc3ccccc31)c1ccccc1C(=O)N(Cc1ccccc1C(F)(F)F)[C@H]2c1ccc(CO)cc1 too.
Result string: Condition not met

Query string: Now give it for COC1(C)CN(Cc2ccccc2Br)[C@H](/C=C/c2ccccc2)[C@H](Cc2ccccc2)O1 (stereo partly specified) too.
Result string: Condition not met

Query string: Now give it for C=CCOC(=O)[C@@H]1[C@H]2C(=O)O[C@H](c3ccccc3)[C@H](c3ccccc3)N2[C@H](c2ccc(OCCOC(=O)[C@H]3C[C@H]4C(=O)N[C@@H](CCCCN(C)C)C(=O)N4[C@H]3c3cccc(OCCO)c3)cc2)[C@@]12C(=O)Nc1ccc(I)cc12 too.
Result string: Condition met

Query string: Now give it for COCCCNC(=O)[C@]1(Cc2ccccc2CN=[N+]=[N-])N=C(c2ccc(OCCCO)cc2)O[C@@H]1c1ccccc1 too.
Result string: Condition met

Query string: Now give it for COC(=O)[C@@]1(Cc2ccc(F)cc2)[C@H]2c3cc(C(=O)N4CCCC4)n(CCc4c[nH]c5ccc(OC)cc45)c3C[C@H]2CN1C(=O)c1ccccc1 too.
Result string: Condition not met

Query string: Now give it for C=CCC(OC(C)=O)[C@@H]1[C@@H](N(Cc2cc3ccccc3o2)C(=O)Cc2ccc(F)cc2)c2cc(OCCCO)ccc2N1C(=O)c1ccc2ccccc2n1 (stereo partly specified) too.
Result string: Condition met

Query string: Now give it for CO[C@H]1O[C@H](CO)[C@@H](OC(=O)Nc2ccccc2-c2ccccc2)[C@H](OC(=O)Nc2ccc3c(c2)OCO3)[C@@H]1OC(=O)Nc1ccc2c(c1)OCO2 too.
Result string: Condition met

Query string: Now give it for COC(=O)C[C@H]1O[C@]2(C(=O)N(C)c3ccccc32)[C@@H](C)[C@@H]1[Si](C)(C)c1ccc(C)cc1 too.
Result string: Condition met

Query string: Now give it for [N-]=[N+]=NCc1ccccc1[C@H]1OC(c2ccc(OCCCO)cc2)=N[C@@]1(CCS(=O)(=O)c1ccccc1)C(N)=O too.
Result string: Condition met

Query string: Now give it for C[n+]1ccc(CCCO)cc1 too.
Result string: Condition met

Query string: Now give it for CC=CC(O)C1C=CC2C(=O)N(c3ccccc3)C(=O)C2N1Nc1ccccc1 (stereo unspecified) too.
Result string: Condition met

Query string: Now give it for COc1ccc(NN2C(C(O)c3ccco3)C=CC3C(=O)N(C4CCCCC4)C(=O)C32)cc1 (stereo unspecified) too.
Result string: Condition met

Query string: Now give it for C#CCNC(=O)[C@H](Cc1ccccc1)NC(=O)[C@@H](N=[N+]=[N-])C(C)C too.
Result string: Condition not met

Query string: Now give it for C[C@]1(C(=O)NC2CC2)c2ccccc2C(=O)N(Cc2ccc(OC(F)(F)F)cc2)[C@H]1c1ccc(CO)cc1 too.
Result string: Condition not met

----------
# Assay remarks: adipocyte viability effects, profiling panel, cell-based, 3T3-L1 adipocytes, calcein-AM fluorescence, 48 h, basal (AID 1163); note: test concentration not given here
# Stated conditions: 3T3-L1 adipocytes viability, higher = more signal
Metric: z-score
Enter a number only.

Query string: Looking for the measured z-score of C=CCOC(=O)[C@@H]1[C@H]2C(=O)O[C@H](c3ccccc3)[C@H](c3ccccc3)N2[C@H](c2ccc(OCCOC(=O)[C@H]3C[C@H]4C(=O)N[C@@H](CCCCNC(C)=O)C(=O)N4[C@H]3c3cccc(OCCO)c3)cc2)[C@@]12C(=O)Nc1ccc(I)cc12 , can you help?
Result string: 0.159

Query string: Now give it for O=C1C[C@@](C(=O)NCC(F)(F)F)(c2ccc([N+](=O)[O-])cc2)[C@@H](c2ccc(CO)cc2)N1C1CCCCC1 too.
Result string: -1.03

Query string: Now give it for O=c1cccc(-c2cccc(Cl)c2)o1 too.
Result string: -0.164

Query string: Now give it for CCOC(=O)C1=CC[C@@H](c2cc(Cl)ccc2Cl)N(S(=O)(=O)c2ccc(C)cc2)[C@H]1c1ccc(OC)cc1 too.
Result string: -0.603

Query string: Now give it for COCCOC(=O)N1C(=O)[C@@]2(c3cc(C#Cc4ccc(OC)cc4)ccc31)[C@H](C(=O)N1CCN(c3ncccn3)CC1)[C@H]1C(=O)O[C@H](c3ccccc3)[C@H](c3ccccc3)N1[C@@H]2c1ccccc1OCCO too.
Result string: 0.0076

Query string: Now give it for CCCCC(=C=CC[C@@H](O)c1ccc(OCCO)cc1)C[C@@H](O)COCc1ccccc1 too.
Result string: 0.716

Query string: Now give it for O=C(O)[C@H]1C[C@H]2C(=O)N3CCC[C@H]3C(=O)N2[C@H]1c1cccc(OCCO)c1 too.
Result string: -0.156

Query string: Now give it for C=C(/C(=C/C[C@@H](OC(=O)c1ccncc1)c1ccccc1OCCO)c1cc(C(=O)OC)ccc1OC)C(C)C too.
Result string: 0.38

Query string: Now give it for COCCCNC(=O)[C@]1(Cc2ccccc2CN=[N+]=[N-])N=C(c2ccc(OCCCO)cc2)O[C@@H]1c1ccccc1 too.
Result string: 0.503

Query string: Now give it for CN(C)CCCCNC(=O)[C@H]1C[C@H]2C(=O)N[C@@H](CCCCN(C)C)C(=O)N2[C@H]1c1cccc(OCCO)c1 too.
Result string: 0.0593

Query string: Now give it for C=CCN1C(=O)[C@@]2(O[C@@H](CCO)[C@H]([Si](C)(C)c3ccc(OC)cc3)[C@H]2C)c2cc(N3C(=O)c4ccccc4Oc4ccccc43)ccc21 too.
Result string: -0.428

Query string: Now give it for CC=CC(O)C1C=CC2C(=O)N(C)C(=O)C2N1Nc1ccc([N+](=O)[O-])cc1[N+](=O)[O-] (configuration not stated) too.
Result string: -0.682

Query string: Now give it for CC(C)CCC[C@@H](C)[C@H]1CC[C@@]2(C)C3=C(CC[C@]12C)[C@@]1(C)CC[C@H](OC(=O)c2ccc(Br)cc2)C(C)(C)C1CC3 (some centres not stated) too.
Result string: 0.889

Query string: Now give it for COc1ccc([Si](C)(C)[C@@H]2[C@@H](CCO)O[C@]3(C(=O)N(Cc4cccc(N5C(=O)c6cccc7cccc5c67)c4)c4ccccc43)[C@H]2C)cc1 too.
Result string: 0.421

Query string: Now give it for COC(=O)[C@@]1(Cc2ccc(F)cc2)[C@H]2c3cc(C(=O)N4CCCC4)n(CCc4c[nH]c5ccc(OC)cc45)c3C[C@H]2CN1C(=O)c1ccccc1 too.
Result string: 0.787

Query string: Now give it for CO[C@H]1O[C@H](CO)[C@@H](OC(=O)Nc2ccccc2-c2ccccc2)[C@H](OC(=O)Nc2ccc3c(c2)OCO3)[C@@H]1OC(=O)Nc1ccc2c(c1)OCO2 too.
Result string: -1.46

Query string: Now give it for CCC[C@@H]1C[C@@]1(CCC)[C@@H](NP(=O)(c1ccccc1)c1ccccc1)c1ccc(Cl)cc1 too.
Result string: -1.03

Query string: Now give it for COc1ccccc1CN1C(=O)c2ccccc2[C@](Cc2ccccc2I)(C(=O)NC(C)C)[C@@H]1c1ccc(CO)cc1 too.
Result string: 0.771

Query string: Now give it for C=CC1c2cc(O)c(OC)cc2CCN1Cc1sc2ccccc2c1Cl (configuration not stated) too.
Result string: 0.155

Query string: Now give it for COCCOC(=O)N1C(=O)[C@@]2(c3cc(C#CC4=CCCCC4)ccc31)[C@H](c1ccc(O)cc1)N1[C@H](c3ccccc3)[C@H](c3ccccc3)OC(=O)[C@H]1[C@@H]2C(=O)Nc1nc2ccccc2s1 too.
Result string: -0.898

Query string: Now give it for C[C@H]1C2=C3C(CC[C@H]4C(OCc5ccc(F)cc5C(F)(F)F)OC[C@](C)([C@@H]34)N(C(=O)OC(C)(C)C)C2)C(CO)C1CO (some centres not stated) too.
Result string: -0.723

Query string: Now give it for CC(C)C(=C=CC[C@H](O)c1ccc(OCCO)cc1)C[C@H](O)c1cc(Cl)cc(Cl)c1O too.
Result string: 0.831

Query string: Now give it for CC(C)(C)OC(=O)CC[C@@]1(C(=O)O)N=C(c2ccc(OCCCO)cc2)O[C@@H]1c1ccccc1CN=[N+]=[N-] too.
Result string: -0.0107

Query string: Now give it for C=CCOC(=O)[C@@H]1[C@H]2C(=O)O[C@H](c3ccccc3)[C@H](c3ccccc3)N2[C@H](c2ccc(OCCOC(=O)[C@H]3C[C@H]4C(=O)N[C@@H](CCCC[N+](C)(C)C)C(=O)N4[C@H]3c3ccc(O)cc3)cc2)[C@@]12C(=O)Nc1ccc(I)cc12 too.
Result string: -1.19

Query string: Now give it for NC(=O)NCC#Cc1ccc2c(c1)[C@]1(C(=O)N2)[C@H](c2ccc(O)cc2)N2[C@H](c3ccccc3)[C@H](c3ccccc3)OC(=O)[C@H]2[C@@H]1C(=O)Nc1nc2ccccc2s1 too.
Result string: 1.17

Query string: Now give it for CC(C)OC(=O)CC(=O)CC(O)c1cccc(C#N)c1 (configuration not stated) too.
Result string: 0.136

Query string: Now give it for COc1ccccc1CN1C(=O)c2ccccc2[C@@H](C(=O)NC(C)C)[C@@H]1c1ccc(CO)cc1 too.
Result string: 0.611
